meta.source: patent US20230157952A1

# testDetails: Effect of concentration on the stability of the solution (purity over time)
# assaySetup: 0.1 wt %; in water at 25° C.
Below: a set of entries, each annotated with reported Purity at Day 7.

- compound: "CCN(CC)CCOC(=O)C(C)c1ccc2oc(-c3ccc(Cl)cc3)nc2c1.Cl (centres unmarked)"
  measureUnit: "%"
  Purity at Day 7: 95.5
- compound: "CCN(CC)CCOC(=O)CCc1ccc2cc(OC)ccc2c1.Cl"
  measureUnit: "%"
  Purity at Day 7: 95.5
- compound: "CCN(CC)CCOC(=O)Cc1ccc(C(=O)c2ccc(C)cc2)n1C.Cl"
  measureUnit: "%"
  Purity at Day 7: 93.3
- compound: "CCN(CC)CCOC(=O)Cc1sc(-c2ccccc2)nc1-c1ccc(Cl)cc1.Cl"
  measureUnit: "%"
  Purity at Day 7: 95.6
- compound: "CCN(CC)CCOC(=O)CC1=C(C)C(=Cc2ccc([S+](C)[O-])cc2)c2ccc(F)cc21.Cl (centres unmarked)"
  measureUnit: "%"
  Purity at Day 7: 93.6
- compound: "CCN(CC)CCOC(=O)Cc1c(C)n(C(=O)c2ccc(Cl)cc2)c2ccc(OC)cc12.Cl"
  measureUnit: "%"
  Purity at Day 7: 93.6
- compound: "CCN(CC)CCOC(=O)[C@H](C)c1ccc2cc(OC)ccc2c1.Cl (racemic)"
  measureUnit: "%"
  Purity at Day 7: 97.2
- compound: "CCN(CC)CCOC(=O)CCc1nc(-c2ccccc2)c(-c2ccccc2)o1.Cl"
  measureUnit: "%"
  Purity at Day 7: 90.6

====

# testDetails: Effect of concentration on the stability of the solution (purity over time)
# assaySetup: 0.1 wt %; in water at 25° C.
assayEndpoint: Purity at Day 21

- compound: "CCN(CC)CCOC(=O)CC1=C(C)C(=Cc2ccc([S+](C)[O-])cc2)c2ccc(F)cc21.Cl (centres unmarked)"
  valueReported: "84.4%"
- compound: "CCN(CC)CCOC(=O)Cc1ccc(C(=O)c2ccc(C)cc2)n1C.Cl"
  valueReported: "83.5%"
- compound: "CCN(CC)CCOC(=O)Cc1sc(-c2ccccc2)nc1-c1ccc(Cl)cc1.Cl"
  valueReported: "84.7%"
- compound: "CCN(CC)CCOC(=O)CCc1nc(-c2ccccc2)c(-c2ccccc2)o1.Cl"
  valueReported: "75.7%"
- compound: "CCN(CC)CCOC(=O)CCc1ccc2cc(OC)ccc2c1.Cl"
  valueReported: "87.2%"

====

# testDetails: Effect of concentration on the stability of the solution (purity over time)
# assaySetup: 3 wt %; in water at 25° C.
Below: a set of entries, each annotated with reported Purity at hr 0.

- compound: "CCN(CC)CCOC(=O)Cc1sc(-c2ccccc2)nc1-c1ccc(Cl)cc1.Cl"
  Purity at hr 0 (%): 98.9
- compound: "CCN(CC)CCOC(=O)Cc1ccc(C(=O)c2ccc(C)cc2)n1C.Cl"
  Purity at hr 0 (%): 97.9
- compound: "CCN(CC)CCOC(=O)CCc1nc(-c2ccccc2)c(-c2ccccc2)o1.Cl"
  Purity at hr 0 (%): 98.4
- compound: "CCN(CC)CCOC(=O)C(C)c1ccc2oc(-c3ccc(Cl)cc3)nc2c1.Cl (stereo not shown)"
  Purity at hr 0 (%): 98.3
- compound: "CCN(CC)CCOC(=O)CCc1ccc2cc(OC)ccc2c1.Cl"
  Purity at hr 0 (%): 98.3
- compound: "CCN(CC)CCOC(=O)Cc1c(C)n(C(=O)c2ccc(Cl)cc2)c2ccc(OC)cc12.Cl"
  Purity at hr 0 (%): 98.4
- compound: "CCN(CC)CCOC(=O)CC1=C(C)C(=Cc2ccc([S+](C)[O-])cc2)c2ccc(F)cc21.Cl (stereo not shown)"
  Purity at hr 0 (%): 97.3

====

# testDetails: Effect of temperature (and pH) on the stability of the solution (purity)
# Type: physicochemical
# assaySetup: 7% solution in water, pH 1.0, day 0

- compound: "CCN(CC)CCOC(=O)CCc1nc(-c2ccccc2)c(-c2ccccc2)o1.Cl"
  Purity(%) at day 0: 98.2
- compound: "CCN(CC)CCOC(=O)Cc1c(C)n(C(=O)c2ccc(Cl)cc2)c2ccc(OC)cc12.Cl"
  Purity(%) at day 0: 98.1
- compound: "CCN(CC)CCOC(=O)C(C)c1ccc2oc(-c3ccc(Cl)cc3)nc2c1.Cl (stereo not drawn)"
  Purity(%) at day 0: 98.1
- compound: "CCN(CC)CCOC(=O)COc1nn(Cc2ccccc2)c2ccccc12.Cl"
  Purity(%) at day 0: 97.5
- compound: "CCN(CC)CCOC(=O)COC(=O)Cc1c(C)n(C(=O)c2ccc(Cl)cc2)c2ccc(OC)cc12.Cl"
  Purity(%) at day 0: 98.1
- compound: "CCN(CC)CCOC(=O)CCc1ccc2cc(OC)ccc2c1.Cl"
  Purity(%) at day 0: 98.0
- compound: "CCN(CC)CCOC(=O)CC1=C(C)C(=Cc2ccc([S+](C)[O-])cc2)c2ccc(F)cc21.Cl (stereo not drawn)"
  Purity(%) at day 0: 97.2
- compound: "CCN(CC)CCOC(=O)Cc1ccc(C(=O)c2ccc(C)cc2)n1C.Cl"
  Purity(%) at day 0: 97.4
- compound: "CCN(CC)CCOC(=O)c1cc(-c2ccc(F)cc2F)ccc1OC(C)=O.Cl"
  Purity(%) at day 0: 99.1

====

# testDetails: Effect of temperature (and pH) on the stability of the solution (purity)
# Assay type: physicochemical
# assaySetup: 7% solution in water, pH 4.6, day 21, 25° C.
assayEndpoint: Purity(%) at day 21 (25° C.)

- compound: "CCN(CC)CCOC(=O)CCc1nc(-c2ccccc2)c(-c2ccccc2)o1.Cl"
  assayEndpoint: "Purity(%) at day 21 (25° C.)"
  valueReported: 95.0
- compound: "CCN(CC)CCOC(=O)Cc1c(C)n(C(=O)c2ccc(Cl)cc2)c2ccc(OC)cc12.Cl"
  assayEndpoint: "Purity(%) at day 21 (25° C.)"
  valueReported: 96.4
- compound: "CCN(CC)CCOC(=O)COc1nn(Cc2ccccc2)c2ccccc12.Cl"
  assayEndpoint: "Purity(%) at day 21 (25° C.)"
  valueReported: 95.1
- compound: "CCN(CC)CCOC(=O)C(C)c1ccc2oc(-c3ccc(Cl)cc3)nc2c1.Cl (centres unmarked)"
  assayEndpoint: "Purity(%) at day 21 (25° C.)"
  valueReported: 96.6
- compound: "CCN(CC)CCOC(=O)Cc1ccc(C(=O)c2ccc(C)cc2)n1C.Cl"
  assayEndpoint: "Purity(%) at day 21 (25° C.)"
  valueReported: 94.9
- compound: "CCN(CC)CCOC(=O)CCc1ccc2cc(OC)ccc2c1.Cl"
  assayEndpoint: "Purity(%) at day 21 (25° C.)"
  valueReported: 97.5
- compound: "CCN(CC)CCOC(=O)COC(=O)Cc1c(C)n(C(=O)c2ccc(Cl)cc2)c2ccc(OC)cc12.Cl"
  assayEndpoint: "Purity(%) at day 21 (25° C.)"
  valueReported: 96.5
- compound: "CCN(CC)CCOC(=O)CC1=C(C)C(=Cc2ccc([S+](C)[O-])cc2)c2ccc(F)cc21.Cl (centres unmarked)"
  assayEndpoint: "Purity(%) at day 21 (25° C.)"
  valueReported: 95.9

====

Below: a set of entries, each annotated with reported Purity(%) at day 0.
# testDetails: Effect of temperature (and pH) on the stability of the solution (purity)
# Assay type: physicochemical
# assaySetup: 7% solution in water, pH 5.0, day 0

- compound: "CCN(CC)CCOC(=O)CC1=C(C)C(=Cc2ccc([S+](C)[O-])cc2)c2ccc(F)cc21.Cl (stereo not drawn)"
  Purity(%) at day 0: 97.7
- compound: "CCN(CC)CCOC(=O)Cc1ccc(C(=O)c2ccc(C)cc2)n1C.Cl"
  Purity(%) at day 0: 97.8
- compound: "CCN(CC)CCOC(=O)Cc1c(C)n(C(=O)c2ccc(Cl)cc2)c2ccc(OC)cc12.Cl"
  Purity(%) at day 0: 98.6
- compound: "CCN(CC)CCOC(=O)COC(=O)Cc1c(C)n(C(=O)c2ccc(Cl)cc2)c2ccc(OC)cc12.Cl"
  Purity(%) at day 0: 98.6
- compound: "CCN(CC)CCOC(=O)C(C)c1ccc2oc(-c3ccc(Cl)cc3)nc2c1.Cl (stereo not drawn)"
  Purity(%) at day 0: 98.4
- compound: "CCN(CC)CCOC(=O)CCc1ccc2cc(OC)ccc2c1.Cl"
  Purity(%) at day 0: 98.4
- compound: "CCN(CC)CCOC(=O)CCc1nc(-c2ccccc2)c(-c2ccccc2)o1.Cl"
  Purity(%) at day 0: 98.6
- compound: "CCN(CC)CCOC(=O)COc1nn(Cc2ccccc2)c2ccccc12.Cl"
  Purity(%) at day 0: 97.8
- compound: "CCN(CC)CCOC(=O)c1cc(-c2ccc(F)cc2F)ccc1OC(C)=O.Cl"
  Purity(%) at day 0: 99.1
